test system: Plasmodium falciparum; assay: Calibr Malaria Delayed Death Assay SOP; type: functional, organism-based; design: scale not given: in the data most compounds retested in dose-response had high values; settings: concentration 4.99e-06 (unit not given; other assays of the set use mol/L)
Among all 38,000 compounds or so, about 1,200 (3.2%) showed an effect of 50% or more. The median lay at about -58%. Shown is part of a subset that was picked to be rich in strong results.
Experimental readout: Percent Effect (%)
# value in %; strip the unit string

According to the records, this compound Cc1nc[nH]c1CN1CCC(C2CCN(CCc3ccccc3)C2)CC1 (centres undefined) displays Percent Effect of 9.569

According to the records, this compound C[C@@H](O)CNC(=O)c1nc(Cc2c(Cl)cccc2Cl)no1 displays Percent Effect of -61.62

According to the records, this compound CCS(=O)(=O)c1ccccc1C(=O)N1CCCC(n2cccn2)C1 (centres undefined) displays Percent Effect of -21.75

According to the records, this compound c1ccc2c(c1)nnn2CCCNC1CCOC2(CCOCC2)C1 (centres undefined) displays Percent Effect of -5.834

According to the records, this compound Cc1ncc(CNCCO)c2cc(C(=O)c3ccc(Br)cc3)oc12.Cl displays Percent Effect of 88.87

According to the records, this compound O=C(NCCc1ccccn1)C1=NN(c2ccccc2)C(=O)CN1 displays Percent Effect of -38.96

According to the records, this compound c1ccc2c(c1)cnn2CCCNC1CCOC2(CCOCC2)C1 (centres undefined) displays Percent Effect of 68.4

According to the records, this compound Cc1ncc(CN2CCCC2)c2cc(C(=O)c3ccc(Br)cc3)oc12.Cl displays Percent Effect of 66.17

According to the records, this compound CCN(C(=O)C1=NN(c2ccccc2)C(=O)CN1)c1ccccc1 displays Percent Effect of -71.25

According to the records, this compound CCn1c(C)nnc1Sc1nn2cc(C)nc2s1 displays Percent Effect of -124.9

According to the records, this compound Fc1cccc(C2(CNC3CCCNC3)CCOCC2)c1 (centres undefined) displays Percent Effect of -89.15

According to the records, this compound Cc1nc(NC2CCS(=O)(=O)CC2)cc(C2CCCNC2)n1 (centres undefined) displays Percent Effect of -36.14

According to the records, this compound CCC1(CNC(=O)NC(c2nnc3n2CCC3)C(C)C)CCC1 (centres undefined) displays Percent Effect of -142

According to the records, this compound Fc1ccccc1C1(CNC2CCOC3(CCOCC3)C2)CCCC1 (centres undefined) displays Percent Effect of 75.67

According to the records, this compound CCN(Cc1ccco1)C(=O)C1=NN(c2ccccc2)C(=O)CN1 displays Percent Effect of 59.42

According to the records, this compound Cc1ncc(CNCC(C)O)c2cc(C(=O)c3ccc(Br)cc3)oc12.Cl (centres undefined) displays Percent Effect of 8.12

According to the records, this compound Cc1ncc(CNC(C)(C)CO)c2cc(C(=O)c3ccc(Br)cc3)oc12 displays Percent Effect of 36.54

According to the records, this compound COc1ccc(C(N)=O)cc1NCc1ncc(-c2cccs2)o1 displays Percent Effect of -57.49

According to the records, this compound c1ccc(Cc2noc(CCNC3CCOC4(CCOCC4)C3)n2)cc1 (centres undefined) displays Percent Effect of -44.81

According to the records, this compound CC[C@@]1(O)CCN(c2ncc(Cl)cc2F)C[C@H]1O displays Percent Effect of -98.16

According to the records, this compound Cc1n[nH]cc1CNCc1cccc(OCC(F)(F)F)c1.Cl displays Percent Effect of 56.25

According to the records, this compound Cc1ccc(CN(C)C(=O)CCNS(=O)(=O)c2cccnc2)cc1 displays Percent Effect of 36.55

According to the records, this compound Cn1cc(CN2CCC3(CC2)CCN(C(=O)c2cscn2)C3)cn1.O=C(O)C(F)(F)F displays Percent Effect of -97.69

According to the records, this compound Cc1ncc(CN2CCOCC2)c2cc(C(=O)c3ccc(Br)cc3)oc12.Cl displays Percent Effect of -6.646
